Molecular target: T1, TrwCR (N-terminal relaxase domain of TrwC) (UniProt Q47673 1-293)
T1 sequence: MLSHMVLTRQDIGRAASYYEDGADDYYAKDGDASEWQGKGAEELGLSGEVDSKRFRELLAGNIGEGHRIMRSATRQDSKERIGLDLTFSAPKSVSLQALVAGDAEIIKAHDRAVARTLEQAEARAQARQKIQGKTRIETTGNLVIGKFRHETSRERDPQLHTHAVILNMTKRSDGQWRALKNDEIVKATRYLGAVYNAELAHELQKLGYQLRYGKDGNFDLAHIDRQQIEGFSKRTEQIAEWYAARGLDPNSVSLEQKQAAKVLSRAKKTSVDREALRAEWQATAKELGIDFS
Test: SDS-PAGE covalent complex; 5 mM Mg2+; Covalent complex: 15 uM oligo, 37 C 1 h, 5 mM MgCl2, 15 uM EDTA; TrwCR 10 mM Tris pH 7.6, 375 mM NaCl; MobAR 25 mM Tris pH 8.0, 225 mM NaCl; TraIR 10 mM Tris pH 7.6, 225 mM NaCl. EMSA: 50 nM oligo, 10 mM Tris pH 7.6, 100 mM NaCl, 1 mM EDTA, RT 30 min. Gel filtration: 100 mM Tris pH 7.6, 200 mM NaCl, EDTA
Conditions: protein: recombinant; hairpin
Item-by-item account of binding signal
Measured Property: binding signal (% covalent complex)

[[record]]
binder = "TATTGTCTATAGCCCAGATCGCACCGAAAGGTGCG (structured_DNA) [R388 R(8+27)]"
measured_property = "binding signal"
measurement_unit = "% covalent complex"
readout_value = 44.7

[[record]]
binder = "GCGCACCGAAAGGTGCGTATTGTCTATAGCCCAGATTTAAGGA (structured_DNA) [R388 W(25+18)]"
measured_property = "binding signal"
measurement_unit = "% covalent complex"
readout_value = 24.7

[[record]]
binder = "GGTGCGTATTGTCTATAGCGCACC (structured_DNA) [R388 H(14+10)]"
measured_property = "binding signal"
measurement_unit = "% covalent complex"
readout_value = 23

